Target: VEGFR-3 (Homo sapiens)
Test: Effect of compounds on VEGFR-3 auto-phosphorylation in HEK cells (ELISA)
Settings: autophosphorylation of VEGFR-3-Flag overexpressed in HEK293T cells, 1 h incubation with compound
pIC50: −log10 of the molar value.
Property: pIC50

> print(dat)
                                   compound  value
1  CCn1c(N)c(-c2ncc[nH]2)c(=O)c2ccc(C#C[C@](C)(O)COC)nc21 [Compound 29]   6.84
2  CCn1c(N)c(-c2ncc[nH]2)c(=O)c2ccc(C#CC3(O)CCCC3)nc21 [Compound 14]   6.70
3  CCn1c(N)c(-c2ncc[nH]2)c(=O)c2ccc(C#CC(C)(C)O)nc21 [Compound 15]   7.57
4  CCn1c(N)c(-c2ncc[nH]2)c(=O)c2ccc(C#CC(C)(O)c3ccccc3)nc21 (racemic) [Compound 17]   7.89
5  CCn1c(N)c(-c2ncc[nH]2)c(=O)c2ccc(C#CC(C)(O)c3ccccc3F)nc21 (racemic) [Compound 9]   7.80

P = CCn1c(N)c(-c2ncc[nH]2)c(=O)c2ccc(C#C[C@@](C)(O)CO)nc21 [Compound 27]
Q = CCn1c(N)c(-c2ncc[nH]2)c(=O)c2ccc(C#CC(C)(O)CC)nc21 (racemic) [Compound 16]
Could you please tell me which of these two has the higher pIC50: P or Q ? Answer = label.
P
(P: 7.33, Q: 6.92)

---

Target: VEGFR-3 (Homo sapiens, UniProt P35916)
Construct: expressed in transfected cells; host or cells: HEK293T cells, transient transfection with Fugene-6
Sequence (P35916 25-1363, species assumed): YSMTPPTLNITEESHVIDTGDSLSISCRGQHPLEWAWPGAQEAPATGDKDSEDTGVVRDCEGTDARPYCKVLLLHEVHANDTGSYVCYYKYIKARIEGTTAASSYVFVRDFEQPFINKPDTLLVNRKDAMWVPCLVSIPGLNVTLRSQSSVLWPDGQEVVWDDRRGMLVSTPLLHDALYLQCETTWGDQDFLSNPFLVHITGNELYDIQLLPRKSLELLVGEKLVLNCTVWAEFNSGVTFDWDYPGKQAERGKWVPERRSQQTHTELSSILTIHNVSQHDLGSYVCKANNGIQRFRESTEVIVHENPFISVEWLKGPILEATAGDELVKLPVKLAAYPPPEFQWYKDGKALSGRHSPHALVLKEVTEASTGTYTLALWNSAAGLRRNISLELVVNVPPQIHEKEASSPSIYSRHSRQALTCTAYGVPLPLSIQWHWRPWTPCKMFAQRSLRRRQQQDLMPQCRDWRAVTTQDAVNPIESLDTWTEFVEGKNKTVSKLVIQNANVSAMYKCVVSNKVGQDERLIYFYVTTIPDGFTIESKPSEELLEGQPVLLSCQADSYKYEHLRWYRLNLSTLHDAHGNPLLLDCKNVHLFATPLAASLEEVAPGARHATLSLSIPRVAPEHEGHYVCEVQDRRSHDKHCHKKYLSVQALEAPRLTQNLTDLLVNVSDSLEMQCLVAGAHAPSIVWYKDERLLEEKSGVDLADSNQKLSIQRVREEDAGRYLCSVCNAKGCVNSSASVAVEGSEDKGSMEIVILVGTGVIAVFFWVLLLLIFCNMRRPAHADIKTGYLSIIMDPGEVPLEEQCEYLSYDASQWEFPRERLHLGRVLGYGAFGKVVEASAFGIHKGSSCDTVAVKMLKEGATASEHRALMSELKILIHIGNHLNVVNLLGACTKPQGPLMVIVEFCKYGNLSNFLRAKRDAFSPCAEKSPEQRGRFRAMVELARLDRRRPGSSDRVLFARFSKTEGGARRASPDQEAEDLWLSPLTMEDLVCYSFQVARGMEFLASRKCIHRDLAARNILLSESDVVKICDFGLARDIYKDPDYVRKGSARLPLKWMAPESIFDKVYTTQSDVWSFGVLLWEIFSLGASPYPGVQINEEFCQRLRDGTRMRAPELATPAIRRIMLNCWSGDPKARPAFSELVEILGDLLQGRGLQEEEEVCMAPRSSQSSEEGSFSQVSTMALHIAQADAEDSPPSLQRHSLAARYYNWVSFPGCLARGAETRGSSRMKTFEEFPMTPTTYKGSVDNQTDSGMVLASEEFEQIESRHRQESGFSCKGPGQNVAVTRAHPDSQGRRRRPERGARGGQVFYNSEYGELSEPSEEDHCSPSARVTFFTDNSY
Test: Effect of compounds on VEGFR-3 auto-phosphorylation in HEK cells (ELISA)
Type: cell-based
Details: autophosphorylation of VEGFR-3-Flag overexpressed in HEK293T cells, 1 h incubation with compound
pIC50: −log10 of the molar value.
Property: pIC50

Record excerpt, results attached:
> print(dat)
                                   molecule  value
1  CCn1c(N)c(-c2ncc[nH]2)c(=O)c2ccc(C#CC(O)c3ccccc3)nc21 (racemic)   6.92
2  CCCn1c(N)c(-c2ncc[nH]2)c(=O)c2ccc(C#C[C@@](C)(O)COC)nc21   7.74
3  CCn1c(N)c(-c2ncc[nH]2)c(=O)c2ccc(C#CC(C)(O)c3cccc(F)c3)nc21 (racemic)   7.44
4  CCC(O)C#Cc1ccc2c(=O)c(-c3ncc[nH]3)c(N)n(CC)c2n1 (racemic)   7.72

A = CCC(O)C#Cc1ccc2c(=O)c(-c3ncc[nH]3)c(N)n(CCOC)c2n1 (racemic)
B = CCn1c(N)c(-c2ncc[nH]2)c(=O)c2ccc(C#CC(C)(O)c3cccs3)nc21 (racemic)
C = CCn1c(N)c(-c2ncc[nH]2)c(=O)c2ccc(C#CC3(O)CCC3)nc21
D = CCn1c(N)c(-c2ncc[nH]2)c(=O)c2ccc(-c3ccc(O)c(Cl)c3)nc21
Put these in order: smallest pIC50 first, largest last. Answer with the labels in sequence, matching the requested order.
A, D, C, B

---

Target: VEGFR-3 (Homo sapiens, UniProt P35916)
Construct: expressed in transfected cells; host or cells: HEK293T cells, transient transfection with Fugene-6
Assay: Effect of compounds on VEGFR-3 auto-phosphorylation in HEK cells (ELISA)
Type: cell-based
Conditions: autophosphorylation of VEGFR-3-Flag overexpressed in HEK293T cells, 1 h incubation with compound
pIC50: −log10 of the molar value.
Property: pIC50

> print(dat)
                                   compound                           tested.system  property  value
1  CCCC(O)C#Cc1ccc2c(=O)c(-c3ncc[nH]3)c(N)n(CC)c2n1 (racemic)  VEGFR-3 (Homo sapiens, UniProt P35916)     pIC50   7.07
2  CCn1c(N)c(-c2ncc[nH]2)c(=O)c2ccc(C#CC(C)(O)CO)nc21 (racemic)  VEGFR-3 (Homo sapiens, UniProt P35916)     pIC50   6.90

I = CCC(O)C#Cc1ccc2c(=O)c(-c3ncc[nH]3)c(N)n(CC3CC3)c2n1 (racemic)
II = CCn1c(N)c(-c2ncc[nH]2)c(=O)c2ccc(C#C[C@](C)(O)CO)nc21
Could you please tell me which of these two has the higher pIC50: I or II ? Answer = label.
I
(I: 7.07, II: 6.82)
